assay: growth inhibition of DIPG glioma cells, dose response, cell-based, SU-DIPG-XVII, MIPE5.0, CellTiter-Glo, qHTS (AID 1347060); conditions: SU-DIPG-XVII viability, CellTiter-Glo ATP luminescence;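 on AC50: cells exposed to compound for 48 hours before viability readout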
Results filed as inconclusive are left out. Active and inactive are the calls of the source. Cut-off not given; nearly all actives show AC50 up to about 26 µM.
METRIC: AC50

Answered examples (5):
> print(dat)
                                   compound  metric            result
1  CC(=O)SCC(Cc1ccccc1)C(=O)NCC(=O)OCc1ccccc1 (stereo not given)    AC50          inactive
2  COc1cc2c(cc1O)CC[C@@H]1[C@@H]2CC[C@]2(C)[C@@H](O)CC[C@@H]12    AC50  1.32 µM (active)
3       COc1cc(OC)c(NC(=O)Nc2cc(C)on2)cc1Cl    AC50          inactive
4        NC(=O)Nc1sc(-c2ccc(F)cc2)cc1C(N)=O    AC50  9.34 µM (active)
5                    NC(=O)c1ccc2[nH]ccc2c1    AC50          inactive

For this compound ( CC(Oc1ccc(O)cc1)(P(=O)(O)O)P(=O)(O)O ), measured AC50 is inactive

For this compound ( Fc1ccc(Cl)cc1-c1nc(Nc2ccncc2)c2nccnc2n1 ), measured AC50 is 23.5 µM (active)

For this compound ( O=C1CN2Cc3c(ccc(Cl)c3Cl)N=C2N1 ), measured AC50 is inactive

For this compound ( O=C(c1ccc(OCCN2CCCCC2)cc1)c1c(-c2ccc(O)cc2)sc2cc(O)ccc12 ), measured AC50 is inactive

----------
assay: differential killing of epithelial or mesenchymal cells, primary screen, imaging, PC-3E GFP, TEM4-18 mCherry, co-culture (AID 1345086); details: imaging cell counts, at 1 µM, actives lie on both sides, counts scaled to control wells, 1 = unselective;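 further: normalised mesenchymal count divided by normalised epithelial count so high means epithelial killing; cells exposed to compound for 72 h before imaging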
METRIC: red/green cell ratio (normalised)
In your answer, state the number alone without any accompanying words.

> print(dat)
                                   compound  quantitative.result
1  CC1CC(OC(=O)C(O)c2ccccc2)CC(C)(C)C1 (stereo not drawn)                    1
2  C1CCN2C[C@H]3C[C@H](CN4CCCC[C@@H]34)[C@H]2C1                 1.01

Would you kindly look at the next entry?
For this compound ( CN(C)c1cccc2c(S(N)(=O)=O)cccc12 ), measured red/green cell ratio (normalised) is 1.01

----------
biological target: L-lactate dehydrogenase (Plasmodium falciparum (isolate CDC / Honduras)) (UniProt Q27743); experiment: PfLDH activity inhibition – cell lysate, 3D7 strain, counter-screen for P. falciparum growth inhibition project (AID 2304);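 further: 0% = vehicle and 100% = reference inhibitor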; details: P. falciparum 3D7 crude extract, LDH APAD/NBT absorbance; at 2 µM; stronger effect = higher value
Sequence (Q27743 whole entry, looked up): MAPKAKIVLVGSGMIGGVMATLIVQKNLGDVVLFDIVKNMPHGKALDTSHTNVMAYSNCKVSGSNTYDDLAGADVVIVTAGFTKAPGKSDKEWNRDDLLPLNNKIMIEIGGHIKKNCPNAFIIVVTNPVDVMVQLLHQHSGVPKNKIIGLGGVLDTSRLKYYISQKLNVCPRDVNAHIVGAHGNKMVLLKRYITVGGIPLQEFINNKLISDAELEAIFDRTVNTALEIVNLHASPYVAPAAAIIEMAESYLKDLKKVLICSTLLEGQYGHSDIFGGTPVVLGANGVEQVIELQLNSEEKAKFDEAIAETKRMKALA
Measured inhibition, listed per entry.
State the answer as a number, implicitly in %.

For this compound ( Cc1nc(NCc2ccccc2)cc(Nc2cc(NCc3ccccc3)nc(C)n2)n1 ), measured inhibition is 8

For this compound ( c1ccc(C23N=C(Nc4nc5ccccc5[nH]4)NC2(c2ccccc2)NC(Nc2nc4ccccc4[nH]2)=N3)cc1 (stereo not given) ), measured inhibition is 3

For this compound ( CC(C)(CNC(=O)C1CCN(Cc2ccc(Cl)cc2)CC1)c1nc(-c2ccc(Cl)c(O)c2)c(-c2ccncc2)[nH]1 ), measured inhibition is -6

For this compound ( CS(=O)(=O)Cc1ccc(Nc2nccc(-c3c(-c4cccc(C(=O)Nc5c(F)cccc5F)c4)nn4ccccc34)n2)cc1 ), measured inhibition is -1

----------
test: inhibitors of polyQ protein aggregation (AID 1604); conditions: polyglutamine-induced protein aggregation inhibition assay; stronger effect = higher value; tested at 2.5 µM
Bridge positions count the residues as written; N and C are the ends. Square brackets hold non-standard residues; d marks the D form. Peptide text beside a SMILES is read from it. * marks the point of attachment. ξ: configuration not given here. ξDab(CH2SO3H) = NC(CCNCS(=O)(=O)O)C(=O)O; Heptanoyl(6-Me) = CC(C)CCCCC(=O)*; Dab = NCC[CH](N)C(=O)O
METRIC: inhibition of aggregation (%)
State the answer as a number, implicitly in %.

Answered examples (3):
COMPOUND	inhibition of aggregation (%)
O=c1ccn([C@@H]2O[C@H](COP(=O)(O)OP(=O)(O)OP(=O)(O)O)[C@@H](O)[C@H]2O)c(=O)[nH]1	60.6
CN1C2CC(OC(=O)[C@H](CO)c3ccccc3)C[C@H]1[C@H]1OC21 (some centres undefined)	58.7
NC(N)=N/N=C\c1c(Cl)cccc1Cl	61

Would you kindly look at the next entry?
For this compound ( CCC(C)C1NC(=O)C(CCNCS(=O)(=O)O)NC(=O)C(NC(=O)C(CCNCS(=O)(=O)O)NC(=O)C(NC(=O)C(CCNCS(=O)(=O)O)NC(=O)CCCCC(C)C)C(C)O)CCNC(=O)C(C(C)O)NC(=O)C(CCNCS(=O)(=O)O)NC(=O)C(CCNCS(=O)(=O)O)NC(=O)C(C(C)CC)NC1=O (centres undefined) ({Heptanoyl(6-Me)}-[ξDab(CH2SO3H)]T[ξDab(CH2SO3H)][Dab][ξDab(CH2SO3H)]II[ξDab(CH2SO3H)][ξDab(CH2SO3H)]T; lactam 4-C; configuration not given here) ), measured inhibition of aggregation is 59.3

----------
Measured red/green cell ratio (normalised), listed per entry.
assay: differential killing of epithelial or mesenchymal cells, primary screen, imaging, PC-3E GFP, TEM4-18 mCherry, co-culture (AID 1345086); conditions: imaging cell counts, at 1 µM, actives lie on both sides, counts scaled to control wells, 1 = unselective;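 further: normalised mesenchymal count divided by normalised epithelial count so high means epithelial killing; cells exposed to compound for 72 h before imaging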
In your answer, state the number alone without any accompanying words.

Answered examples (5):
COMPOUND	red/green cell ratio (normalised)
C#C[C@]1(OC(C)=O)CCC2C3CCC4=CC(=O)CC[C@@H]4C3CC[C@@]21C (stereo not given in full)	1.18
NC(N)=NCC1COC2(CCCCC2)O1 (stereo not given)	1.08
C=C1[C@@H](C)C2[C@H](Cc3c[nH]c4ccccc34)NC(=O)[C@]23C(=O)/C=C/C(=O)[C@H](OC(C)=O)/C(C)=C/[C@@H](C)C/C=C/[C@H]3[C@@H]1O (stereo not given in full)	1.13
CCCCC/C=C/CCC(=O)N[C@H]1[C@H](Oc2c3cc4cc2Oc2ccc(cc2Cl)[C@@H](O[C@@H]2O[C@H](CO)[C@@H](O)[C@H](O)[C@H]2NC(C)=O)[C@@H]2NC(=O)[C@H](NC(=O)[C@@H]4NC(=O)[C@H]4NC(=O)C(Cc5ccc(c(Cl)c5)O3)NC(=O)[C@H](N)c3ccc(O)c(c3)Oc3cc(O)cc4c3)c3ccc(O)c(c3)-c3c(OC4O[C@H](CO)[C@@H](O)[C@H](O)[C@@H]4O)cc(O)cc3[C@@H](C(=O)O)NC2=O)O[C@H](CO)[C@@H](O)[C@@H]1O (stereo not given in full)	1.02
COc1cc([C@@H]2c3cc4c(cc3[C@H](O)C3COC(=O)[C@@H]32)OCO4)cc(OC)c1OC (stereo not given in full)	1.07

For this compound ( CCN(Cc1cccc(S(=O)(=O)O)c1)c1cccc(C(=C2C=CC(=[N+](CC)Cc3cccc(S(=O)(=O)O)c3)C=C2)c2ccc(O)cc2S(=O)(=O)[O-])c1 ), measured red/green cell ratio (normalised) is 0.88

For this compound ( O=C(O)C1CC(C2CCCCN2)CN2CCCCC12 (stereo not given) ), measured red/green cell ratio (normalised) is 1.06

For this compound ( CC(C)(O/N=C(\C(=O)N[C@@H]1C(=O)N2C(C(=O)[O-])=C(C[n+]3ccccc3)CSC12)c1csc(N)n1)C(=O)O (stereo not given in full) ), measured red/green cell ratio (normalised) is 0.74

For this compound ( COc1ccc(/C=C/C(=O)c2cc(O)ccc2O)cc1 ), measured red/green cell ratio (normalised) is 0.92

For this compound ( O=C(O)CCCN1CCN([C@H](c2ccccc2)c2ccc(Cl)cc2)CC1 ), measured red/green cell ratio (normalised) is 0.97

----------
system: F380Y/beta1; assay: modulators of BK channel variants, profiling panel, selectivity assay, cell-based, U2OS BacMam, thallium flux, beta subunits (AID 1259406); conditions: at 30 µM;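 further: initial slope of Thallos dye fluorescence rise after thallium is added; log ratio against the mean of 0.3% DMSO vehicle wells on the same plate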
# if measured log fold change Tl+ flux < -0.03: Fulfilled  # else: Not fulfilled

Reference set (4 entries):
> print(dat)
                                   compound  qualitative.label
1  Cc1ccc(S(=O)(=O)NC(=O)NCc2csc3ccc(Cl)cc23)cc1      Not fulfilled
2  COC(=O)C=C1NCC(O)CNC1=O (stereo not given)          Fulfilled
3   Cc1ccc(C(=O)Cn2cc([N+](=O)[O-])nc2C)cc1      Not fulfilled
4  CCOC(=O)C(C)Oc1ccc(NS(=O)(=O)c2cc(OC)ccc2OC)cc1Cl (stereo not given)          Fulfilled

Continue with the next compound.
Task item: Lab log: compare recorded log fold change Tl+ flux with -0.03; is it strictly lower for O=c1c(Cl)c(N2CCOCC2)cnn1-c1cnc2ccccc2n1 ?
Reply: Not fulfilled
